- Assay Notes: in vitro
- Experimental Setup: pig
- Text: As in the previous TEWL study, sublingual mucosa and porcine skin dermatomized to a thickness of 500-700 µm are used. […] Subsequently, the drugs are deposited to determine their kinetics. […] They were then further analyzed with a high performance liquid chromatography diode array detector (HPLC-DAD). […] Two parameters were used, Qn and % API release, to obtain graphs showing absorption and penetration kinetics (Y-axis). […] All results are expressed as mean ± standard deviation (SD). […]
Measurement Label: Cmax at 1 % (ng/mL)
One number for each entry, in ng/mL.

// query Answer with reported Cmax at 1 % of CC1(C)C(C=C(Cl)Cl)C1C(=O)OCc1cccc(Oc2ccccc2)c1 (stereo not shown)
// result 15700

* * *

- Assay Notes: in vitro
- Experimental Setup: pig, Conc. Max., Cmax
Measurement Label: Cmax at 1 % (µg/mL)
Numbers only, in µg/mL.

C[C@@H]1C[C@H]2[C@@H]3CCC4=CC(=O)C=C[C@]4(C)[C@@]3(F)[C@@H](O)C[C@]2(C)[C@@]1(O)C(=O)CO ... 315

// query Answer with reported Cmax at 1 % of CC(C)Cc1ccc(C(C)C(=O)O)cc1 (centres unmarked)
// result 341

* * *

- Assay Notes: in vitro
- Experimental Setup: pig
Measurement Label: Cmax at 1 % (ng/mL)
Give bare numbers, in ng/mL.

CC(C)Cc1ccc(C(C)C(=O)O)cc1 (centres unmarked) ... 21900

Now for the compound whose Cmax at 1 % we want.
// query Answer with reported Cmax at 1 % of C[C@@H]1C[C@H]2[C@@H]3CCC4=CC(=O)C=C[C@]4(C)[C@@]3(F)[C@@H](O)C[C@]2(C)[C@@]1(O)C(=O)CO
// result 67400
